Relative EC30 reference
- study.target: Retinoic acid receptor alpha (Homo sapiens)
- assay.details: Relative transcriptional activation in COS cells expressing Retinoic acid receptor alpha compared to ATRA
- Format: functional, cell-based
All answers are understood in nM, so give the number only.

Supply measured Relative EC30 of `Cc1cc(C)c2sc(-c3ccc(-c4ccc(C(=O)O)cc4)[nH]3)cc2c1` in your reply.
2.4

Provide Relative EC30 value for the following compound: `Cc1ccc(C)c2sc(-c3ccc(-c4ccc(C(=O)O)cc4)[nH]3)cc12`
1.3

State, in one line, measured Relative EC30 of `O=C(O)c1ccc(-c2ccc(-c3cc4c(C(F)(F)F)ccc(F)c4o3)[nH]2)cc1`
0.29

Write down Relative EC30 measured for item `Cc1ccc2cc(-c3ccc(-c4ccc(C(=O)O)cc4)[nH]3)oc2c1C`
3.1

Using known records, supply Relative EC30 for `O=C(O)c1ccc(-c2ccc(-c3cc4c(Cl)ccc(Cl)c4o3)[nH]2)cc1`
0.7

State its Relative EC30: `Cc1cccc2cc(-c3ccc(-c4ccc(C(=O)O)cc4)[nH]3)oc12`
0.8
